Reported %Inh is given for each of the following compounds.
system: PRKR; construct: gene EIF2AK2; details: concentration: 1 μM, replicates: in singlicate; n = 1;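 also: KINOMEscan kinase panel screen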
Lab note: write values as number then unit, every time.

// solved cases for %Inh follow
Nc1nc(-c2ccc3c(N)n[nH]c3c2)cc(N2CCCCC2)n1 [GSK2228768] :: 6%
Cl.O=S(=O)(c1cccc(F)c1)c1ccc(Nc2ncnc3cc(Br)sc23)cc1Cl [GSK306886] :: 0%
COc1ccc(NC(=O)Nc2ccc(C)c(-c3ccc(C(=O)Nc4ccncc4)cc3)c2)cc1 [GSK1398475] :: 0%
Fc1ccc(-c2ncn(CCCNCc3ccccc3)c2-c2ccncc2)cc1 :: 0%
Clc1cccc(-c2nc(Nc3ccncc3)c3ccccc3n2)c1 [GW873004] :: 0%
Clc1ccc(-c2cc(-c3c[nH]nc3-c3ccccn3)ccn2)cc1 [GW681251] :: 11%
Oc1ccc2ncnc(Nc3ccc(OCc4ccccc4)cc3)c2c1 [GI262866] :: 0%
CC(C)(C)c1ccc(-n2cnc3c(N)ncnc32)cc1 [SKF-97263] :: 0%
CS(=O)(=O)CCNCc1ccc(-c2ccc3ncnc(Nc4ccc(OCc5ccccc5)c(Cl)c4)c3c2)o1.Cl [GW574783] :: 0%
COC(=O)c1c(-c2ccccc2)c2cc(Cl)ccc2c(=O)n1Cc1ccc(S(C)(=O)=O)cc1 :: 0%

Consider the additional compound presented here.
Which value of %Inh has been reported for CCc1nc(-c2cccc(N(C)S(=O)(=O)c3ccccc3)c2)c(-c2ccnc(Nc3ccc(N4CCN(C(C)=O)CC4)nc3)n2)s1 [GSK1645895] in the records?
17%
